Recorded values, source patent US20100150863A1.

TEST_TARGET: mutant Bcr-Abl-T315I kinase (Homo sapiens, UniProt P00519, T315I)
Construct: fused on or other part: P11274 (Breakpoint cluster region protein)
MEASUREMENT_DESCRIPTION: Bcr-Abl mutant T315I biochemical assay
pIC50: −log10 of the molar value.
ATTRIBUTE_MEASURED: pIC50

{"columns": ["COMPOUND", "TEST_RESULT"],
 "data": [
  ["CNC(=O)c1cc(Oc2ccc(NC(=O)Nc3cc(C(C)(C)C)nn3-c3cccc(CO)c3)c(Cl)c2)ccn1 [ANDREA-1]", "> 5.00"]
]}

---

TEST_TARGET: Bcr-Abl-wt kinase (Homo sapiens, UniProt P00519)
Construct: fused on or other part: P11274 (Breakpoint cluster region protein)
MEASUREMENT_DESCRIPTION: Bcr-Abl wild type biochemical assay
pIC50: −log10 of the molar value.
ATTRIBUTE_MEASURED: pIC50

{"columns": ["SMILES_INPUT", "TEST_TARGET", "ATTRIBUTE_MEASURED", "TEST_RESULT"],
 "data": [
  ["CNC(=O)c1cc(Oc2ccc(NC(=O)Nc3cc(C(C)(C)C)nn3-c3cccc(CO)c3)c(Cl)c2)ccn1", "Bcr-Abl-wt kinase (Homo sapiens, UniProt P00519)", "pIC50", "> 5.00"]
]}
